Quick reference: Activity of the listed items.
- TARGET ENTITY: NAD-dependent protein deacylase sirtuin-6 (Homo sapiens) (UniProt Q8N6T7)
- Sequence (Q8N6T7 whole entry, the tested form may be a part): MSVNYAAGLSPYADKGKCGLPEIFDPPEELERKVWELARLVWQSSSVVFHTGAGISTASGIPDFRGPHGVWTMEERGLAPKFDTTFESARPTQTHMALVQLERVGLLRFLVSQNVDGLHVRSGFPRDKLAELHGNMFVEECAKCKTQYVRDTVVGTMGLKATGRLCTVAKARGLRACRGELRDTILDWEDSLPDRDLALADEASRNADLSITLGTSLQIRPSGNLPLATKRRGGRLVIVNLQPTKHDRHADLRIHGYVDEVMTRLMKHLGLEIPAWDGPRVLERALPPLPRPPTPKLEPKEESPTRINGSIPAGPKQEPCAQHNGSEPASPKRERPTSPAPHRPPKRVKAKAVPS
- ASSAY METHOD TEXT: Substrate activity at human N-terminal His-tagged SIRT6 (1 to 355 residues) expressed in Escherichia coli at 50 uM measured after 2 hrs in presence of NAD+ and trypsin by fluorescence assay
*1 amine or outer side, *2 acyl side, *3 side chain or, on linkers, in order; H or OH if unused. Where a SMILES comes first, the peptide text is derived from it. The star is where a group is joined. AMC = Cc1cc(=O)oc2cc(N*)ccc12; Suc = O=C(CCC(=O)[*:2])[*:1]; Decanoyl = CCCCCCCCCC(=O)*
Enter the number, and then the unit.

MOLECULE	Activity
CC(=O)NCCCC[C@H](NC(=O)[C@H](CO)NC(=O)[C@H](Cc1ccccc1)NC(=O)[C@H](CC(=O)O)NC(C)=O)C(=O)Nc1ccc2c(C)cc(=O)oc2c1 (Ac-DFSK(Ac)-{AMC})	0.58 RFU
CC(=O)N[C@@H](CO)C(=O)N[C@@H](CC(C)C)C(=O)NCC(=O)N[C@@H](CCCCNC(=O)CCC(=O)O)C(=O)Nc1ccc2c(C)cc(=O)oc2c1 (Ac-SLGK(Suc)-{AMC})	1.18 RFU
CCCCCCCCCC(=O)NCCCC[C@H](NC(=O)[C@H](CCCCN)NC(=O)[C@@H]1CCCN1C(=O)[C@H](CC(N)=O)NC(C)=O)C(=O)Nc1ccc2c(C)cc(=O)oc2c1 (Ac-NPKK(Decanoyl)-{AMC})	1.32 RFU

Entry CC[C@H](C)[C@H](NC(=O)[C@H](CC(C)C)NC(=O)[C@H](CCCNC(=N)N)NC(C)=O)C(=O)N[C@@H](CCCCNC(C)=O)C(=O)Nc1ccc2c(C)cc(=O)oc2c1 (Ac-RLIK(Ac)-{AMC}) ; Activity = 0.71 RFU

Entry CC(=O)N[C@@H](CC(C)C)C(=O)NCC(=O)N[C@@H](CO)C(=O)N[C@@H](CCCCNC(=O)CCC(=O)O)C(=O)Nc1ccc2c(C)cc(=O)oc2c1 (Ac-LGSK(Suc)-{AMC}) ; Activity = 1.14 RFU

Entry CCCCCCCCCC(=O)NCCCC[C@H](NC(=O)[C@H](CCCNC(=N)N)NC(=O)[C@H](C)NC(=O)[C@@H](NC(C)=O)[C@@H](C)O)C(=O)Nc1ccc2c(C)cc(=O)oc2c1 (Ac-TARK(Decanoyl)-{AMC}) ; Activity = 0.79 RFU

Entry CC(=O)N[C@@H](Cc1cnc[nH]1)C(=O)N[C@@H](Cc1ccccc1)C(=O)N[C@@H](CO)C(=O)N[C@@H](CCCCNC(=O)CCC(=O)O)C(=O)Nc1ccc2c(C)cc(=O)oc2c1 (Ac-HFSK(Suc)-{AMC}) ; Activity = 0.51 RFU

Entry CC(=O)NCCCC[C@H](NC(=O)[C@H](CCCNC(=N)N)NC(=O)[C@H](C)NC(=O)[C@@H](NC(C)=O)[C@@H](C)O)C(=O)Nc1ccc2c(C)cc(=O)oc2c1 (Ac-TARK(Ac)-{AMC}) ; Activity = 0.43 RFU

Entry CC(=O)NCCCC[C@H](NC(=O)[C@H](CCCCN)NC(=O)[C@H](Cc1cnc[nH]1)NC(=O)[C@H](CCCNC(=N)N)NC(C)=O)C(=O)Nc1ccc2c(C)cc(=O)oc2c1 (Ac-RHKK(Ac)-{AMC}) ; Activity = 0.43 RFU

Entry CCCCCCCCCC(=O)NCCCC[C@H](NC(=O)[C@H](CCCNC(=N)N)NC(=O)[C@H](CC(C)C)NC(=O)[C@H](CC(=O)O)NC(C)=O)C(=O)Nc1ccc2c(C)cc(=O)oc2c1 (Ac-DLRK(Decanoyl)-{AMC}) ; Activity = 1.5 RFU

----------
- TARGET ENTITY: UniProt:Q9NXA8
- Sequence (Q9NXA8 37-310 limits assumed): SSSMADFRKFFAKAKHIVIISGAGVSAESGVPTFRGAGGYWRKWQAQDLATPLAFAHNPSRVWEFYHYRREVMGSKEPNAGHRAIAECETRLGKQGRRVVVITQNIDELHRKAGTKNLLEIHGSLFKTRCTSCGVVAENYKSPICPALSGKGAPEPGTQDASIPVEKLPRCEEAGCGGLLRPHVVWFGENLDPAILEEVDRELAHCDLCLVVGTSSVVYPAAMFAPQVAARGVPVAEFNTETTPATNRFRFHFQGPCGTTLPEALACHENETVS
- ASSAY METHOD TEXT: Substrate activity at human N-terminal His-tagged SIRT5 (34 to 302 residues) expressed in Escherichia coli at 50 uM measured after 2 hrs in presence of NAD+ and trypsin by fluorescence assay
*1 amine or outer side, *2 acyl side, *3 side chain or, on linkers, in order; H or OH if unused. Where a SMILES comes first, the peptide text is derived from it. The star is where a group is joined. AMC = Cc1cc(=O)oc2cc(N*)ccc12; Suc = O=C(CCC(=O)[*:2])[*:1]; Decanoyl = CCCCCCCCCC(=O)*
QUANTITY NAME: Activity (RFU)
Field: numeric (RFU). Do not append units.

Reference set (3 entries):
COMPOUND	Activity (RFU)
CCCCCCCCCC(=O)NCCCC[C@H](NC(=O)[C@H](CCCNC(=N)N)NC(=O)[C@H](CC(C)C)NC(=O)[C@H](CC(=O)O)NC(C)=O)C(=O)Nc1ccc2c(C)cc(=O)oc2c1 (Ac-DLRK(Decanoyl)-{AMC})	1.54
CCCCCCCCCC(=O)NCCCC[C@H](NC(=O)[C@@H](NC(=O)[C@H](CO)NC(=O)[C@H](CO)NC(C)=O)[C@@H](C)CC)C(=O)Nc1ccc2c(C)cc(=O)oc2c1 (Ac-SSIK(Decanoyl)-{AMC})	1.08
CC(=O)N[C@@H](Cc1cnc[nH]1)C(=O)N[C@@H](Cc1ccccc1)C(=O)N[C@@H](CO)C(=O)N[C@@H](CCCCNC(=O)CCC(=O)O)C(=O)Nc1ccc2c(C)cc(=O)oc2c1 (Ac-HFSK(Suc)-{AMC})	0.71

Summary: CC(=O)NCCCC[C@H](NC(=O)[C@H](CC(C)C)NC(=O)[C@H](CCCCN)NC(=O)[C@H](Cc1ccc(O)cc1)NC(C)=O)C(=O)Nc1ccc2c(C)cc(=O)oc2c1 (Ac-YKLK(Ac)-{AMC}) , UniProt:Q9NXA8, Activity = 1.29

Summary: CCCCCCCCCC(=O)NCCCC[C@H](NC(=O)[C@H](CC(=O)O)NC(=O)[C@@H](NC(=O)[C@H](CCC(=O)O)NC(C)=O)[C@@H](C)O)C(=O)Nc1ccc2c(C)cc(=O)oc2c1 (Ac-ETDK(Decanoyl)-{AMC}) , UniProt:Q9NXA8, Activity = 1.24

Summary: CCCCCCCCCC(=O)NCCCC[C@H](NC(=O)[C@H](CCCNC(=N)N)NC(=O)[C@H](C)NC(=O)[C@@H](NC(C)=O)[C@@H](C)O)C(=O)Nc1ccc2c(C)cc(=O)oc2c1 (Ac-TARK(Decanoyl)-{AMC}) , UniProt:Q9NXA8, Activity = 1.38

Summary: CC(=O)NCCCC[C@H](NC(=O)[C@H](CO)NC(=O)[C@H](Cc1ccccc1)NC(=O)[C@H](CC(=O)O)NC(C)=O)C(=O)Nc1ccc2c(C)cc(=O)oc2c1 (Ac-DFSK(Ac)-{AMC}) , UniProt:Q9NXA8, Activity = 0.81

----------
- TARGET ENTITY: NAD-dependent protein deacetylase sirtuin-2 (Homo sapiens)
- ASSAY METHOD TEXT: Substrate activity at human N-terminal His-tagged SIRT2 (56 to 356 residues) expressed in Escherichia coli at 5 uM measured after 2 hrs in presence of NAD+ and trypsin by fluorescence assay
*1 amine or outer side, *2 acyl side, *3 side chain or, on linkers, in order; H or OH if unused. Where a SMILES comes first, the peptide text is derived from it. The star is where a group is joined. AMC = Cc1cc(=O)oc2cc(N*)ccc12; Suc = O=C(CCC(=O)[*:2])[*:1]; Decanoyl = CCCCCCCCCC(=O)*
QUANTITY NAME: Activity (RFU)
Field: numeric (RFU). Do not append units.

MOLECULE	TARGET ENTITY	Activity [RFU]
CC[C@H](C)[C@H](NC(C)=O)C(=O)N[C@@H](CCCNC(=N)N)C(=O)N[C@H](C(=O)N[C@@H](CCCCNC(=O)CCC(=O)O)C(=O)Nc1ccc2c(C)cc(=O)oc2c1)[C@@H](C)CC (Ac-IRIK(Suc)-{AMC})	NAD-dependent protein deacetylase sirtuin-2 (Homo sapiens)	0.33
CC(=O)N[C@@H](Cc1cnc[nH]1)C(=O)N[C@@H](Cc1ccccc1)C(=O)N[C@@H](CO)C(=O)N[C@@H](CCCCNC(=O)CCC(=O)O)C(=O)Nc1ccc2c(C)cc(=O)oc2c1 (Ac-HFSK(Suc)-{AMC})	NAD-dependent protein deacetylase sirtuin-2 (Homo sapiens)	0.21
CCCCCCCCCC(=O)NCCCC[C@H](NC(=O)[C@H](CC(=O)O)NC(=O)[C@@H](NC(=O)[C@H](CCC(=O)O)NC(C)=O)[C@@H](C)O)C(=O)Nc1ccc2c(C)cc(=O)oc2c1 (Ac-ETDK(Decanoyl)-{AMC})	NAD-dependent protein deacetylase sirtuin-2 (Homo sapiens)	20.6
CC(=O)NCCCC[C@H](NC(=O)[C@H](CC(C)C)NC(=O)[C@H](CCCCN)NC(=O)[C@H](Cc1ccc(O)cc1)NC(C)=O)C(=O)Nc1ccc2c(C)cc(=O)oc2c1 (Ac-YKLK(Ac)-{AMC})	NAD-dependent protein deacetylase sirtuin-2 (Homo sapiens)	3.84

Entry CC(=O)NCCCC[C@H](NC(=O)[C@H](CCCNC(=N)N)NC(=O)[C@H](CO)NC(=O)[C@H](CC(N)=O)NC(C)=O)C(=O)Nc1ccc2c(C)cc(=O)oc2c1 (Ac-NSRK(Ac)-{AMC}) ; Activity = 0.24

Entry CC(=O)N[C@@H](CC(C)C)C(=O)NCC(=O)N[C@@H](CO)C(=O)N[C@@H](CCCCNC(=O)CCC(=O)O)C(=O)Nc1ccc2c(C)cc(=O)oc2c1 (Ac-LGSK(Suc)-{AMC}) ; Activity = 0.21

Entry CCCCCCCCCC(=O)NCCCC[C@H](NC(=O)[C@@H](NC(=O)[C@H](CO)NC(=O)[C@H](CO)NC(C)=O)[C@@H](C)CC)C(=O)Nc1ccc2c(C)cc(=O)oc2c1 (Ac-SSIK(Decanoyl)-{AMC}) ; Activity = 7.07

Entry CC(=O)NCCCC[C@H](NC(=O)[C@H](CO)NC(=O)[C@H](Cc1ccccc1)NC(=O)[C@H](CC(=O)O)NC(C)=O)C(=O)Nc1ccc2c(C)cc(=O)oc2c1 (Ac-DFSK(Ac)-{AMC}) ; Activity = 1.13
